system: Streptococcus pneumoniae; assay: Antibacterial activity against erythromycin-resistant Streptococcus pneumoniae A22072 expressing mef gene by the broth microdilution method; format: functional
Parameter: MIC. Scope: all listed entries.
Give your result in µg/mL as a bare value.

INSERT INTO assay_data (structure_as_smiles, readout, units, reported) VALUES
  ('CC[C@H]1OC(=O)[C@H](C)[C@@H](O[C@H]2C[C@@](C)(OC)[C@@H](OC(=O)NNC(=O)c3cc([N+](=O)[O-])cc([N+](=O)[O-])c3)[C@H](C)O2)[C@H](C)[C@@H](O[C@@H]2O[C@H](C)C[C@H](N(C)C)[C@H]2O)[C@](C)(O)C[C@@H](C)CN(C)[C@H](C)[C@H]2OC(=O)O[C@@]21C', 'MIC', 'µg/mL', 0.25);

Name the recorded MIC for CC[C@H]1OC(=O)[C@H](C)[C@@H](O[C@H]2C[C@@](C)(OC)[C@@H](OC(=O)NNC(=O)c3ccc(OC)c(OC)c3)[C@H](C)O2)[C@H](C)[C@@H](O[C@@H]2O[C@H](C)C[C@H](N(C)C)[C@H]2O)[C@](C)(O)C[C@@H](C)CN(C)[C@H](C)[C@H]2OC(=O)O[C@@]21C .
0.25

----------
system: Staphylococcus aureus; assay: Antibacterial activity against penicillin-resistant Staphylococcus aureus by the broth microdilution method; type: functional
Readings of MIC for the listed molecules
Write the answer as a number in µg/mL, unit excluded.

Some molecules with recorded MIC:
INSERT INTO assay_data (structure_as_smiles, target_under_test, units, reported) VALUES
  ('CC[C@H]1OC(=O)[C@H](C)[C@@H](O[C@H]2C[C@@](C)(OC)[C@@H](O)[C@H](C)O2)[C@H](C)[C@@H](O[C@@H]2O[C@H](C)C[C@H](N(C)C)[C@H]2O)[C@](C)(O)C[C@@H](C)C(=O)[C@H](C)[C@@H](O)[C@]1(C)O', 'Staphylococcus aureus', 'µg/mL', 0.25),
  ('CC[C@H]1OC(=O)[C@H](C)[C@@H](O[C@H]2C[C@@](C)(OC)[C@@H](OC(=O)NNC(=O)c3ccc([N+](=O)[O-])cc3)[C@H](C)O2)[C@H](C)[C@@H](O[C@@H]2O[C@H](C)C[C@H](N(C)C)[C@H]2O)[C@](C)(O)C[C@@H](C)CN(C)[C@H](C)[C@H]2OC(=O)O[C@@]21C', 'Staphylococcus aureus', 'µg/mL', 4),
  ('CC[C@H]1OC(=O)[C@H](C)[C@@H](O[C@H]2C[C@@](C)(OC)[C@@H](OC(=O)NCCNC(=O)c3ccc(C)cc3)[C@H](C)O2)[C@H](C)[C@@H](O[C@@H]2O[C@H](C)C[C@H](N(C)C)[C@H]2O)[C@](C)(O)C[C@@H](C)CN(C)[C@H](C)[C@H]2OC(=O)O[C@@]21C', 'Staphylococcus aureus', 'µg/mL', 4);

Pending molecule:
Provide the documented MIC with Staphylococcus aureus as the system for CC[C@H]1OC(=O)[C@H](C)[C@@H](O[C@H]2C[C@@](C)(OC)[C@@H](OC(=O)NCCCCNC(=O)c3ccc(OC)cc3)[C@H](C)O2)[C@H](C)[C@@H](O[C@@H]2O[C@H](C)C[C@H](N(C)C)[C@H]2O)[C@](C)(O)C[C@@H](C)CN(C)[C@H](C)[C@H]2OC(=O)O[C@@]21C
1
